- Tgt: SARS-CoV-2 Alpha (B.1.1.7) Spike on pseudovirions (SARS-CoV-2)
- Protocol text: cell-based or functional assay
Property: pseudovirus neutralization IC80; scope: individual binders
Readout label: pseudovirus neutralization IC80 (µg/mL)

| Binder | Readout label | Recorded result |
| --- | --- | --- |
| ShAb01H06K (ShAb01Hole-06Knob) (bispecific antibody, V domains shown) V domain 1: ARVDQTPRSVTKETGESLTINCVLRDSNCALSSTHWYRKKSGSTNEERILQGRRYVETVNSGSKSFSLRINDLRVEDSGTYRCKVYWGNSWQDKFCPGLGSYEYGDGTAVTVNS V domain 2: ARVDQTPRSVTKETGESLTINCVLRDASYALGSTCWYRKKSGSTNEESISKGGRYVETVNSGSKSFSLRINDLTVEDGGTYRCGVGRGLGVGCDYPLCSYSYAACGDGTAVTVNS | pseudovirus neutralization IC80 | 2.65 |
| ShAb01-Foldon (ShAb01 VNAR-KESlinker-Foldon-3c-His8-Strep) (VNAR) VNAR: ARVDQTPRSVTKETGESLTINCVLRDSNCALSSTHWYRKKSGSTNEERILQGRRYVETVNSGSKSFSLRINDLRVEDSGTYRCKVYWGNSWQDKFCPGLGSYEYGDGTAVTVNK | pseudovirus neutralization IC80 | 0.328 |
| ShAb02-Foldon (ShAb02 VNAR-KESlinker-Foldon-3c-His8-Strep) (VNAR) VNAR: ARVDQTPQTITKETGESLTINCVLRDSNCALASTDWYRKKSGSTNEESISKGGRYVETVNSGSKSFSLRINDLTVEDSGTYRCNAWDSWETRQLKCDYDVYGGGTVVTVNK | pseudovirus neutralization IC80 | 0.104 |
| ShAb06H02K (ShAb06Hole-02Knob) (bispecific antibody, V domains shown) V domain 1: ARVDQTPRSVTKETGESLTINCVLRDASYALGSTCWYRKKSGSTNEESISKGGRYVETVNSGSKSFSLRINDLTVEDGGTYRCGVGRGLGVGCDYPLCSYSYAACGDGTAVTVNS V domain 2: ARVDQTPQTITKETGESLTINCVLRDSNCALASTDWYRKKSGSTNEESISKGGRYVETVNSGSKSFSLRINDLTVEDSGTYRCNAWDSWETRQLKCDYDVYGGGTVVTVNS | pseudovirus neutralization IC80 | 0.225 |
